Ref: PubChem BioAssay (NCI)

test system: CAKI-1 renal; test: NCI-60 one-dose screen, 48 h (100 = growth as untreated, 0 = no growth, -100 = all killed); conditions: 10 µM unless noted
This is part of a sample that, as a whole, favours compounds with a hit. Of some 83,000 tested, about 20% had one in any assay.

{"molecule": "CCOC(=O)n1cc(-c2nonc2-c2cn(C(=O)OCC)c3ccc(Br)cc23)c2ccccc21", "unit string": "%", "growth": 60.1}
{"molecule": "Cc1ccc2c(c1)=C/C(=C\\c1cc(-c3ccccc3)oc1O)C(=O)N=2", "unit string": "%", "growth": 91.1}
{"molecule": "COc1c(C(=O)Nc2ccc(C)c(Br)c2)ccc2ccccc12", "unit string": "%", "growth": 71.9}
{"molecule": "COc1ccc(Nc2ncc(Br)c(NCCCNC(=O)C3CCCC3)n2)cc1", "unit string": "%", "growth": 9.48}
{"molecule": "N#Cc1c(-c2ccccc2)[nH]c2ncc(-c3ccccc3)n2c1=O", "unit string": "%", "growth": 83.4}
{"molecule": "CCCCNC(=O)CC1=C(C)/C(=C/c2[nH]c(-c3ccc[nH]3)cc2OC)N=C1C", "unit string": "%", "growth": 4.74}
{"molecule": "C1CCC([PH+](C2CCCCC2)C2CCCCC2[PH+](C2CCCCC2)C2CCCCC2)CC1.[Au].[CH-]1CCCCC1C1CCCC[N-]1 (centres undefined)", "unit string": "%", "growth": -88}
{"molecule": "COc1cc2oc(-c3cccc(NC(=O)c4ccccc4)c3)cc(=O)c2c(OC)c1OC", "unit string": "%", "growth": 87.2}
{"molecule": "O=S(=O)(c1ccccc1)n1cc2c(c1)-c1nc(Nc3ncccn3)sc1CC2", "unit string": "%", "growth": 66.8}
{"molecule": "COC(=O)c1nc(-c2ccc(C)cc2)oc1S(=O)(=O)c1cccc(OC)c1", "unit string": "%", "growth": 69.5}
{"molecule": "CN(C)CCNC(=O)c1cc2c3cc(Cl)ccc3[nH]c2c2ncccc12", "unit string": "%", "growth": 23.8}
{"molecule": "O=C(c1ccccc1)c1ccc(C2CCCCC2)cc1", "unit string": "%", "growth": 82.2}
{"molecule": "O=C(Nc1ccccc1)Nc1ncnc2c1ncn2-c1ccc(Cl)cc1", "unit string": "%", "growth": 93.9}
{"molecule": "O=S(=O)(NCCCNc1nccc(-c2c(-c3ccc(F)c(O)c3)nc3sccn23)n1)c1ccccc1", "unit string": "%", "growth": 55.9}
{"molecule": "Cc1c(O)cc(-c2cnc(Nc3ccccc3)s2)c(O)c1C", "unit string": "%", "growth": 86.9}
{"molecule": "COc1ccccc1N1CCCCC1", "unit string": "%", "growth": 97.8}
{"molecule": "CN(c1cc2ncc(=O)[nH]c2cc1NC(N)=NCc1ccc(Cl)cc1)C1CCCCC1", "unit string": "%", "growth": 98.5}
{"molecule": "CC1OC(n2c3ccccc3c3c4c(c5c6ccccc6[nH]c5c32)C(=O)N(CCN2CCCC2)C4=O)CC(O)C1O (centres undefined)", "unit string": "%", "growth": 20.1}
{"molecule": "O=C(Nc1cccc(Cl)c1)Nc1cccc(Cn2c(=O)[nH]c3ccc(Oc4ncccn4)cc3c2=O)c1", "unit string": "%", "growth": 63.8}
{"molecule": "CC1=C([Se]CC(OC(=O)CC[Se]c2ccccc2)C(=O)NC(C)(C)C)C(=O)c2ccccc2C1=O (centres undefined)", "unit string": "%", "growth": -34.3}
{"molecule": "COC(=O)CC[C@@H]1O[C@@H](c2cccc(C(F)(F)F)c2)[C@@H](O)[C@H]1O", "unit string": "%", "growth": 94}
{"molecule": "Cc1ccc2c(n1)C(=O)C(Br)=C(C1CCCC1)C2=O", "unit string": "%", "growth": 90.8}
{"molecule": "c1cc2c(ccc3[nH]c(-c4ccc5[nH]ncc5c4)c4c(c32)CCCC4)n1", "unit string": "%", "growth": 69.8}
{"molecule": "COc1ccccc1NC(=O)N=Nc1c(O)[nH]c2ccccc12", "unit string": "%", "growth": 73.3}
{"molecule": "O=C1c2c(c3c4ccccc4[nH]c3c3ccc4ccccc4c23)C(=O)N1CCN1CCNCC1", "unit string": "%", "growth": 63.3}
{"molecule": "Cc1ccc2c(n1)C(=O)C(Br)=C(CC(C)C)C2=O", "unit string": "%", "growth": 92.7}
{"molecule": "COC1/C=C/OC2(C)Oc3c(C)c(O)c4c(O)c(c(/C=N/Nc5ccc([N+](=O)[O-])cc5[N+](=O)[O-])c(O)c4c3C2=O)NC(=O)C(C)=C/C=C/C(C)C(O)C(C)C(O)C(C)C(OC(C)=O)C1C (centres undefined)", "unit string": "%", "growth": 74.2}
{"molecule": "O=c1c2cccc3c(N4CCCC4)ccc(c32)c2nc3ccccc3n12", "unit string": "%", "growth": 51.3}
{"molecule": "Cn1ccnc1C(=O)/C=C/c1ccc(CC(=O)Nc2cc(C(F)(F)F)cc(C(F)(F)F)c2)cc1", "unit string": "%", "growth": 76.4}
{"molecule": "O=C1C(Cl)=C(Nc2ccc(S(=O)(=O)N3CCOCC3)cc2)C(=O)c2ccccc21", "unit string": "%", "growth": 78.5}
{"molecule": "O=c1[nH]c(-c2ccccc2)nc2sc3cc(O)ccc3c12", "unit string": "%", "growth": 68.9}
{"molecule": "O=C1c2ccc3c4c5ccc(c24)C(=O)N1CCCOCCCCOCCCNCc1ccc(cc1)CNCCCOCCCCOCCCN(C3=O)C5=O", "unit string": "%", "growth": -1.05}
{"molecule": "CNC(=O)c1[nH]cc(-c2ccc(OC)cc2)c1-c1cc(OC)c2c(c1OC)OCO2", "unit string": "%", "growth": 83.6}
{"molecule": "O=C1/C(=C/c2cccc(F)c2)CN(C(=O)C(Cl)Cl)C/C1=C\\c1cccc(F)c1", "unit string": "%", "growth": -75.6}
{"molecule": "CCCC/C=C/[C@@H]1C[C@H]1CCO", "unit string": "%", "growth": 98.9}
{"molecule": "O=CN1N=C(c2cccc(Nc3ccnc4cc(Cl)ccc34)c2)CC1c1ccccc1 (centres undefined)", "unit string": "%", "growth": 11.8}
{"molecule": "CCC(=C(c1ccc(OCCN2CCCCC2)cc1)c1ccc(OCCN2CCCCC2)cc1)c1ccc(Cl)cc1", "unit string": "%", "growth": -95.6}
{"molecule": "Cc1ccc(CNc2ccc3nc(CCC4CCCCC4)[nH]c3c2)cc1", "unit string": "%", "growth": 35.8}
{"molecule": "COc1ccc(OC)c(Nc2nnc(-c3ccc(O)c(OC)c3)o2)c1", "unit string": "%", "growth": 30.4}
